Property: koff; scope: individual binders
Biological target: T1, human IL13 (human, UniProt P35225 35-146, biotinylated in the SPR assays (sites not given))
T1 construct: Peprotech; also called hIL13; recombinant human IL13
T1 sequence (P35225 other isoform, or with tags, fused parts or gaps limits assumed): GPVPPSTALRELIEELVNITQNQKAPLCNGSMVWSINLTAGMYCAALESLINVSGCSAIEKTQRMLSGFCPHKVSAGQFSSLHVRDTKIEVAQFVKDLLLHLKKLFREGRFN
Test: SPR BIAcore, biotin-IL13 on SA chip, global fit
MEASUREMENT_LABEL: koff (s⁻¹)

>>> reported_result("5D12 (designed binder, N-Cap-(AR)3-C-Cap) DLGKKLLEAARAGQDDEVRILMANGADVNAVDDYGSTPLHLAARQGHLEIVEVLLKNGADVNADDFIGDTPLHLAAFKGHLEIVEVLLKNGADVNASDITGETPLHLAATAGHLEIVEVLLKHGADVNAQDKFGKTAFDISIDNGNEDLAEILQKLN")
0.000184
>>> reported_result("IL13 binding protein 6G9 (designed binder) DLGKKLLEAARAGQDDEVRILMANGADVNARDSYGSTPLHLAAREGHLEIVEVLLKYGADVNAKDMIGDTPLHLAAYRGHLEIVEVLLKNGADVNASDITGETPLHLAAQIGHLEIVEVLLKYGADVNAQDKFGKTAFDISIDNGNEDLAEILQKLN")
"5.74e-05"
>>> reported_result("6D4 (designed binder, N-Cap-(AR)3-C-Cap) DLGKKLLEAARAGQDDEVRILMANGADVNAADDYGSTPLHLAARSGHLEIVEVLLKHGADVNANDFIGDTPLHLAAYNGHLEIVEVLLKNGADVNATDITGETPLHLAAERGHLEIVEVLLKNGADVNTQDKFGKTAFDISIDNGNEDLAEILQKLN")
"9.08e-05"

The reported numbers originate from patent US20120277143A1.
